Ref: ChEMBL document CHEMBL1157539

- Tested on: Plasmodium falciparum
- test-name: GSK_TCMDC: Inhibition of Plasmodium falciparum 3D7 in whole red blood cells, using parasite LDH activity as an index of growth. Test compounds present at 2uM
- Assay type: functional
recorded-metric: Inhibition

| compound | result |
| --- | --- |
| CCCc1cc(C)ccc1OCCCON1C(NC(=O)OCC)=NC(NC(=O)OCC)=NC1(C)C | 95% |
| CCc1ccc2c(c1O)CCN(C)C2Cc1ccccc1Cl.Cl (stereo not given) | 99% |
| O=C(Nc1cccc(CN2CCCN(Cc3ccccc3)CC2)c1)c1ccc(Cl)c(Cl)c1.O=C(O)C(F)(F)F | 95% |
| CCN(CC)CCCNc1ncc2c(-c3ccc(NC(=O)Nc4cc(C(F)(F)F)ccc4F)c(F)c3)nn(C)c2n1.O=C(O)C(F)(F)F | 94% |
| CCOc1ccc(N2C(N)=NC(N)=NC2(C)C)cc1.Cl | 95% |

###

Readings of Inhibition for the listed compounds
- System: HepG2
- test-name: GSK_TCMDC: Percent inhibition of human HepG2 cell line. Test compounds present at 10uM.
- Assay type: functional

| compound | Inhibition / % |
| --- | --- |
| Cc1nc2ccc(Nc3nccc(-c4c(-c5cccc(NC(=O)c6c(F)cccc6F)c5)nn5ccccc45)n3)cc2nc1C | 55 |
| CCN1CCc2c1cc(C(=O)N[C@@H](Cc1ccccc1)[C@H](O)CNC(C)(C)c1cccc(C(F)(F)F)c1)cc2N1CCCCS1(=O)=O | 6 |
| CC1CN(c2ccc3[nH]cc(Sc4ccc(-c5cccs5)cc4)c3c2)CC(C)N1.Cl (stereo not drawn) | 29 |
| CC(C)CNC(=O)c1cncc(-c2ccc(CNCCCc3ccccc3)cc2)c1.O=C(O)C(F)(F)F | 28 |
| O=C(O)C(F)(F)F.OC1CCCN(Cc2ccc(-c3ccc(-c4nc5cc(F)ccc5[nH]4)s3)cc2)C1 (stereo not drawn) | 40 |
| Cn1cccc1CCNCc1ccc(-c2cccc(-c3nc4cc(F)ccc4[nH]3)c2)cc1.O=C(O)C(F)(F)F | 0 |
| COc1ccc(C(=O)NC(Nc2ccc([N+](=O)[O-])cc2)C(Cl)(Cl)Cl)cc1 (stereo not drawn) | 15 |
| CC1CCCN(S(=O)(=O)c2cc(Br)cc3c2N(C(=O)C2CC2)CC3)C1 (stereo not drawn) | 0 |

###

Known Inhibition of a selection of compounds
- Tested on: Plasmodium falciparum
- test-name: GSK_TCMDC: Inhibition of Plasmodium falciparum Dd2 in whole red blood cells, using parasite LDH activity as an index of growth. Test compounds present at 2uM
- Assay type: functional

| compound | Inhibition [%] |
| --- | --- |
| CCCCCCCCCN(CCC)C(=O)[C@@H]1OC(C(=O)OC(c2ccccc2)c2ccccc2)=C[C@H](NC(=O)OC(C)(C)C)[C@H]1NC(C)=O | 49 |
| CCn1c(-c2nonc2N)nc2c(-c3cccc(Cl)c3)ncc(OCCCNCc3cnc(C)nc3N)c21.O=C(O)C(F)(F)F | 48 |
| FC(F)(F)c1ccc2[nH]c(-c3ccc(-c4cccc(CNCC5CCCO5)c4)cc3)nc2c1.O=C(O)C(F)(F)F (stereo not drawn) | 100 |
| c1ccc2cc3c(Nc4ccc(N5CCCCCC5)cc4)ccnc3cc2c1 | 76 |
| N#Cc1cccc(NC(=O)Nc2ccc(-c3cccc(-c4nc5cc(F)ccc5[nH]4)c3)cc2)c1 | 100 |
| O=[N+]([O-])c1cccc(-c2nc(-c3ccc(Br)cc3)[nH]c2-c2ccc(Br)cc2)c1 | 44 |
| COCCOc1nc(N)nc2ncc(Cc3cc(OC)ccc3OC)c(C)c12 | 0 |
| Cc1cc(C(=O)Nc2ccc3c(ccn3C3CCCN(Cc4ccc(C(F)(F)F)cc4F)CC3)c2)no1 (stereo not drawn) | 95 |

###

- System: Plasmodium falciparum
- test-name: GSK_TCMDC: Inhibition of Plasmodium falciparum Dd2 in whole red blood cells, using parasite LDH activity as an index of growth. Test compounds present at 2uM
- Format: functional
Label scheme for Inhibition: lower band: < 30%; central band: ≥ 30% and < 90%; upper band: ≥ 90%

| molecule | class-label |
| --- | --- |
| CC1(C)N=C(N)N=C(N)N1c1ccc2ccccc2c1.Cl | lower band |
| C=C(NC(=O)c1cc(C)cc(C)c1)C(=O)OC | lower band |
| COc1cc(-c2cc3cc(Cl)c(Cl)cc3[nH]2)ccc1C(=O)NC1CCN(Cc2ccccc2)CC1.O=C(O)C(F)(F)F | upper band |
| O=C(Nc1ccc(-c2nc3ccccc3[nH]2)cc1)C1CCCN(CC2CC2)C1 (configuration not stated) | lower band |
| CC(Oc1ccc(Cl)cc1)C(=O)NCCC1CCN(CCCCCNC(=O)/C=C/c2ccc(Cl)c(Cl)c2)CC1 (configuration not stated) | lower band |
| O=C(COc1ccccc1Cl)N1CCc2cc3nccc(N4CCN5CCC[C@H]5C4)c3cc21 | upper band |
| CCN1CCN(c2cc(C)c3cc(NC(=O)c4ccc([N+](=O)[O-])c(C)c4)ccc3n2)CC1 | central band |
| O=C(/C=C/c1ccc(Cl)c(Cl)c1)NCCCCCN1CCCN(C(=O)Nc2cccc(Cl)c2)CC1 | lower band |
| O=C(NCc1cccc(F)c1)Nc1cccc(-c2cccc(-c3nc4ccccc4[nH]3)c2)c1 | lower band |
| Cc1cccc2nc(-c3ccc(-c4cccc(CN5CCC(N)C5)c4)s3)[nH]c12.O=C(O)C(F)(F)F (configuration not stated) | central band |
| NC1=NC(c2ccccc2)(c2ccccc2)C(=O)N1CCOc1ccccc1 | central band |
| Cl.O=C(Nc1ccncc1)Nc1ccc2c(c1)CCN(C1CCC1)CC2 | lower band |
| O=C(Nc1ccc(C(F)(F)F)cc1)NC1CCN(c2ccnc3cc(Cl)ccc23)C1.O=C(O)C(F)(F)F (configuration not stated) | upper band |
| O=c1cc(NCCC(CNCc2ccoc2)NCc2cc(Br)cc(Br)c2)[nH]c2ccccc12 (configuration not stated) | lower band |
| Cc1c(C)c2c(c(C)c1O)CCC(C)(CCC(=O)O)O2 (configuration not stated) | lower band |
| Fc1cc(Cl)ccc1Nc1ccnc2cc(-c3ccc(CN4CCCCC4)o3)ccc12 | upper band |
| CCCCOC(=O)c1ccc(Nc2cc(C)nc3ccc(OC)cc23)cc1 | upper band |
| Cc1ccc(CN2CCCN(Cc3cccc(NC(=O)c4cc5ccccc5s4)c3)CC2)cc1C.O=C(O)C(F)(F)F | central band |
| O=C(Nc1ccc(C(F)(F)F)cc1)c1ccc(S(=O)(=O)NC2CCN(CC3CCCCC3)CC2)cc1.O=C(O)C(F)(F)F | lower band |
| CCOC(=O)c1ccc(-n2c(C)cc(C=C3SC(=Nc4ccccc4)N(C4CCCC4)C3=O)c2C)cc1 | central band |
| NC1=NC(c2ccccc2)(c2ccccc2)C(=O)N1C1CCCCC1.O=CO | central band |
| Cc1cc(NC(=O)Nc2ccc3ncccc3c2)c2ccccc2n1 | lower band |
| CCN(CCO)CCc1cccc(Nc2nccc(-c3c(-c4ccc(NC(=O)N(CC)CC)cc4)nn4ccccc34)n2)c1.Cl | upper band |
| CC[C@H](NC(=O)c1c(CC2CCN(CC(C)=O)CC2)c(-c2ccccc2)nc2ccccc12)c1ccccc1 | upper band |
| COc1ccc2[nH]c(C)cc(=NN=Cc3cccc(F)c3)c2c1 | upper band |
| COc1ccc(-c2cccc(CNC3CCN(C)CC3)c2)cc1S(=O)(=O)NCc1ccccc1.O=C(O)C(F)(F)F | lower band |
| CC(=O)c1ccccc1OCCSc1nnc(Cc2cccs2)n1C1CCCCC1 | lower band |
| CC[C@H](C)CNC(=O)c1cccc(-c2cccc(CN3CCC(N4CCCC4)CC3)c2)n1.O=C(O)C(F)(F)F | central band |
| O=C(Cn1c(CCc2cccc(F)c2F)nc(=O)c2ccccc21)N(Cc1ccc(-c2ccc(C(F)(F)F)cc2)cc1)C1CCN(C2=NCCS2)CC1.O=C(O)C(O)C(O)C(=O)O | central band |
| N#Cc1ccc(CN2CCC(Oc3ccc(NC(=O)c4ccccc4)cc3Cl)CC2)cc1.O=C(O)C(F)(F)F | central band |
| O=C(Nc1ccc(OC(F)(F)F)cc1)NC1CCN(c2ccnc3ccccc23)CC1.O=C(O)C(F)(F)F | central band |
| CN(CCc1ccccn1)Cc1ccc(-c2ccc(-c3nc4ccccc4[nH]3)s2)cc1 | central band |
| Cc1nc(-c2nc(NCCc3cnccn3)ncc2-c2ccsc2)sc1C | central band |
| Oc1cccc(/C=N/Nc2ccnc3cc(Cl)ccc23)c1 | upper band |

###

# Lookup of reported Inhibition keyed by entry
- Tested on: HepG2
- test-name: GSK_TCMDC: Percent inhibition of human HepG2 cell line. Test compounds present at 10uM.
- Type: functional

| compound | Inhibition |
| --- | --- |
| Cc1ccc2c(OCCN3CCC(Cc4ccc5c(c4)NC(=O)CO5)CC3)cc(F)cc2n1.Cl | 24% |
| CCCNCc1ccc(-c2ccc(CN(Cc3cnc(C)cn3)C(=O)CC#N)cc2)nc1.O=C(O)C(F)(F)F | 4% |
| S=C(Nc1ccc(Cl)cc1)Nc1ccc(Nc2ccccc2)cc1 | 14% |
| O=C(NC1CC1)c1ccc(N2CCCCN2CCc2ccccc2)c(C(F)(F)F)c1.O=C(O)C(F)(F)F | 0% |
| CCCCCCN1CCCN(Cc2ccc(C(=O)Nc3ccc(F)c(F)c3)cc2)CC1.O=C(O)C(F)(F)F | 50% |
| COc1cc(Br)c(S(=O)(=O)n2cc(CN3CCC(N)CC3)c3cc(Cl)ccc32)cc1OC.O=C(O)C(F)(F)F | 27% |
| O=C(Nc1ccccc1)Nc1cccc(-c2cc(CNCCc3ccccc3)sc2-c2ccncc2)c1 | 14% |
| CC(C)CCN1CCCN(Cc2ccc(C(=O)NCc3ccc(Cl)cc3)cc2)CC1.O=C(O)C(F)(F)F | 16% |
| O=C(NCC1CCN(Cc2cccc(C(F)(F)F)c2)C1)c1cc(-c2cccc(Cl)c2)cs1.O=C(O)C(F)(F)F (configuration not stated) | 15% |
| O=C(NC1CCN(CCN2CCC(c3ccccc3C(F)(F)F)CC2)CC1)c1ccc(-c2ccc(Cl)cc2)cc1 | 39% |
| CNC(=O)c1c(NC(=O)c2cccs2)sc2c1CCCC2 | 2% |
| CN1CCN(c2cc3c(cc2Cl)CCN3C(=O)Nc2ccc(NC(=O)c3ccc(C(F)(F)F)cc3)cc2)CC1.Cl | 98% |
| Cc1cccc2nc(-c3ccc(-c4ccc(CN5CCC(N)C5)cc4)s3)[nH]c12.O=C(O)C(F)(F)F (configuration not stated) | 21% |
| COc1cc(CN/C(=N/c2ccc(-c3ccccc3)cc2)Nc2ccc(C#N)cc2O)cc(OC)c1 | 0% |
| O=C(O)C(F)(F)F.O=C1CCCN1CCCNCc1ccc(-c2ccc(-c3nc4cc(C(F)(F)F)ccc4[nH]3)s2)cc1 | 9% |
| COc1cccc(-c2csc(C(=O)NCC3CCN(Cc4ccc(C(C)(C)C)cc4)C3)c2)c1.O=C(O)C(F)(F)F (configuration not stated) | 30% |
| CCCN(CCC)CCCNc1ccc(C(=O)Nc2ccc(C(C)C)cc2)cc1[N+](=O)[O-] | 17% |
| O=C(Nc1cc(Cl)ccc1Cl)N[C@H]1CCN(CCCCCNC(=O)C2CC2c2ccc(Cl)c(Cl)c2)C1 (some centres not stated) | 49% |
| COc1ccc(Cc2c(C)nc3nc(N)nc(N)c3c2C)cc1OC.Cl | 66% |
| COc1ccc2ncc(F)c(CCN3CC[C@@H](CNCc4cc(C)c5c(c4)OCCO5)C3)c2n1.Cl | 22% |
| CC1CCCC(Nc2noc(-c3sccc3Br)n2)C1 (configuration not stated) | 7% |
| COc1cc2nc(NCC3CCCCC3)nc(NCc3ccccc3)c2cc1OC | 18% |
| O=C(O)C(F)(F)F.O=[N+]([O-])c1cccc(CNCC2CCN(Cc3ccc(C(F)(F)F)cc3)CC2)c1 | 7% |
| CN1CCCC(CN2CCN(Cc3ccc(-c4ccc(-c5nc6ccccc6[nH]5)s4)cc3)CC2)C1.O=C(O)C(F)(F)F (configuration not stated) | 57% |
| CCCCCCCCS(=O)(=O)NCCCC1CCN(CCCCCNC(=O)C=Cc2ccc(Cl)c(Cl)c2)CC1 | 100% |
| COc1ccc(NC(=O)[C@H](Cc2ccccc2)Nc2cc(C)nc(NCC3CCCCC3)n2)cc1.O=C(O)C(F)(F)F | 9% |
| Cc1nc(Cl)c2c(-c3ccccc3)csc2n1 | 0% |
| COc1cc2c(cc1C(F)(F)F)N(C(=O)Nc1cc(F)c(F)c(-c3cccnc3)c1)CC2 | 20% |
| COc1ccc(S(=O)(=O)N2CCCC(C)C2)cc1N1CCN(C(=O)c2ccc([N+](=O)[O-])o2)CC1 (configuration not stated) | 0% |
| Cc1cc2ncc(C(N)=O)c(Nc3ccc(N4CCOCC4)cc3)c2cc1S(C)(=O)=O.Cl | 0% |
| O=C(Nc1ccc2c(c1)OCCO2)c1cc(-c2cccnc2)nc2ccc(Cl)cc12 | 2% |
| CCn1c2ccccc2c2cc(C=NN=c3cc(C)[nH]c4ccccc34)ccc21 | 19% |
| COc1ccc2[nH]ccc(=NN=Cc3cccc(F)c3)c2c1 | 13% |
| N=C(N)c1nc2ccccc2s1 | 1% |
| CC1(C)N=C(N)N=C(NOCc2ccc(Cl)c(Cl)c2)N1 | 5% |
| CCOc1ccc(Br)cc1/C=C/C(=O)Nc1ccc2c(c1)CCCN(C)C2.O=C(O)C(F)(F)F | 40% |
| FC(F)(F)c1ccc(-c2cncc(-c3ccc(C(F)(F)F)cc3)n2)cc1 | 9% |
